Biological target: MC3-R (Homo sapiens)
Sequence (P41968 whole entry): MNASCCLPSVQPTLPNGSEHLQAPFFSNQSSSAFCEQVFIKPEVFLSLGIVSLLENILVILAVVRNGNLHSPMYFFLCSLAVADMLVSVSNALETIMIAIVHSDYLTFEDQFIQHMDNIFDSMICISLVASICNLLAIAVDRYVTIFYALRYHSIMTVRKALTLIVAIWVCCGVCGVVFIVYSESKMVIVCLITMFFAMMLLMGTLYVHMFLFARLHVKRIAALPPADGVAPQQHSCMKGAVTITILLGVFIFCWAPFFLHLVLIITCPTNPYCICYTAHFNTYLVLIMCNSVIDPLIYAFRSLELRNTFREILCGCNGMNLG
Experiment: Competitive inhibition binding assay, 125I-NDP-α-MSH, MC3-R
Set-up: expressed in transfected cells
Settings: 1 μM compound; inhibition of 125I-NDP-α-MSH binding; mean of triplicates; results less than 0% reported as 0%
Protocol: The competitive inhibition binding assay was conducted using membranes prepared from hMC3-R, hMC4-R, hMC5-R, and B-16 mouse melanoma cells (containing MC1-R) using 0.4 nM ^125I-NDP-α-MSH (New England Nuclear, Boston, Mass., USA) in 50 mM HEPES buffer containing 1 mM MgCl2, 2 mM CaCl2, and 5 mM KCl, at pH 7.2. […]
MEASURED PROPERTY: Inhibition at 1 μM MC3-R (%)
Please respond with the number in % and leave the unit unwritten.

Here is how some compounds turned out for Inhibition at 1 μM MC3-R.
[
  {
    "COMPOUND": "CNC(=O)NCCC[C@H]1C(=O)N(CCc2ccc3ccccc3c2)CCN1C(=O)[C@@H](Cc1ccc(Cl)cc1Cl)NC(=O)[C@@H](N)COCc1ccccc1",
    "STUDY TARGET": "MC3-R (Homo sapiens)",
    "UOM": "%",
    "Inhibition at 1 μM MC3-R": 11
  },
  {
    "COMPOUND": "NCCCC[C@H]1C(=O)N(CCc2ccc3ccccc3c2)CCN1C(=O)[C@@H](Cc1ccc(Cl)cc1Cl)NC(=O)c1cccc(Oc2ccccc2)c1",
    "STUDY TARGET": "MC3-R (Homo sapiens)",
    "UOM": "%",
    "Inhibition at 1 μM MC3-R": 21
  },
  {
    "COMPOUND": "NCCCNC(=O)C1CC(OCc2ccccc2)CN1C(=O)C(Cc1ccccc1)NC(=O)C1CCC(=O)N1C(=O)OCc1ccccc1 (stereo not shown)",
    "STUDY TARGET": "MC3-R (Homo sapiens)",
    "UOM": "%",
    "Inhibition at 1 μM MC3-R": 0
  },
  {
    "COMPOUND": "N=C(N)NCCC[C@H]1C(=O)N(CCc2ccc3ccccc3c2)CCN1C(=O)[C@H](N)Cc1ccc(Cl)cc1",
    "STUDY TARGET": "MC3-R (Homo sapiens)",
    "UOM": "%",
    "Inhibition at 1 μM MC3-R": 38
  },
  {
    "COMPOUND": "NC(=O)NCCC[C@H]1C(=O)N(CCc2ccc3ccccc3c2)CCN1C(=O)[C@@H](Cc1ccc(Cl)cc1Cl)NC(=O)[C@@H](N)COCc1ccccc1",
    "STUDY TARGET": "MC3-R (Homo sapiens)",
    "UOM": "%",
    "Inhibition at 1 μM MC3-R": 43
  },
  {
    "COMPOUND": "N[C@H](Cc1ccc(Cl)cc1Cl)C(=O)N1CCN(CCc2ccc3ccccc3c2)C(=O)[C@@H]1CCCNc1ncccn1",
    "STUDY TARGET": "MC3-R (Homo sapiens)",
    "UOM": "%",
    "Inhibition at 1 μM MC3-R": 9
  }
]

Prompt line: Look up Inhibition at 1 μM MC3-R: CC(C)NC(=N)NCCCC1C(=O)N(CCc2ccc3ccccc3c2)CCN1C(=O)C(N)Cc1ccc(Cl)cc1Cl (stereo not shown)
Response line: 40

Prompt line: Input N=C(N)NCCC[C@H]1C(=O)N(CCc2c[nH]c3ccccc23)CCN1C(=O)[C@@H](Cc1ccc(Cl)cc1)NC(=O)[C@@H](N)COCc1ccccc1
Response line: 55

Prompt line: Try this compound next: [2H]N1CCCC1C(=O)NC(Cc1ccccc1)C(=O)N1CC(OCc2ccccc2)CC1C(=O)NCCCN (stereo not shown)
Response line: 0

Prompt line: Would you mind doing N=C(N)NCCC[C@H]1C(=O)N(CCc2ccc3ccccc3c2)CCN1C(=O)[C@H](N)Cc1ccccc1Cl as well?
Response line: 2

Prompt line: Now consider N=C(N)NCCC[C@H]1C(=O)N2C(CC[C@@H]2COc2ccc3ccccc3c2)N1C(=O)[C@@H](Cc1ccc(Cl)cc1Cl)NC(=O)[C@@H]1Cc2ccccc2CN1 (stereo partly shown) and answer again.
Response line: 88

Prompt line: Now this one: N=C(N)NCCC[C@H]1C(=O)N(CCc2c[nH]c3ccccc23)CCN1C(=O)[C@@H](Cc1ccc(Cl)cc1)NC(=O)[C@@H](N)COCc1ccc(Cl)cc1
Response line: 64

Prompt line: Same lookup for NCCCC[C@H]1C(=O)N(CCc2ccc3ccccc3c2)CCN1C(=O)[C@H](N)Cc1ccc2ccccc2c1 , please.
Response line: 14

Prompt line: Another compound: CCCCCCC(=O)N[C@@H](COCc1ccccc1)C(=O)N[C@H](Cc1ccc(Cl)cc1)C(=O)N1CCN(CCc2c[nH]c3ccccc23)C(=O)[C@@H]1CCCCN
Response line: 72
